# assay: Drug concentration in rat brain at 2 umol/kg, po after 2.5 hrs
# Type: ADME, organism-based
# cond: read-out: Ct
property: concentration at 2.5 h (ng/g)

1) O=C(O)C1=C/C(=C/C=[N+]2/CCC[C@H]2C(=O)[O-])C[C@@H](C(=O)O)N1; 20
